Source: the Immune Epitope Database (IEDB)

- TGT: HLA-A*02:01
- METHOD_NOTES: IEDB peptide-MHC binding, purified MHC/competitive/radioactivity; filed as Kd, often an IC50 or EC50 that approximates it; bounds were set here for any values at or beyond the usual limits of such assays
- CONDITIONS_USED: source organism: Trypanosoma cruzi
MEASURE: pKd
Lab note: report pKd as minus log10 of the concentration in molar units, number only.

Q) May I ask what pKd has been recorded for GLLPSLLLLG ?
A) 6.92

###

- TGT: HLA-A*31:01
- METHOD_NOTES: IEDB peptide-MHC binding, purified MHC/competitive/fluorescence; filed as Kd, often an IC50 or EC50 that approximates it; bounds were set here for any values at or beyond the usual limits of such assays
- CONDITIONS_USED: source organism: Lassa virus Josiah
MEASURE: pKd
On this scale, pKd is minus log10 of a concentration expressed in M (mol/L).

Q) Returns the measured pKd for the input sequence. Input: AVNNLVELK
A) 7.11

###

- TGT: HLA-B*40:02
- METHOD_NOTES: IEDB peptide-MHC binding, purified MHC/competitive/radioactivity; filed as Kd, often an IC50 or EC50 that approximates it; bounds were set here for any values at or beyond the usual limits of such assays
- CONDITIONS_USED: source organism: Mammarenavirus juninense
MEASURE: Kd (nM)
Give the number; nM is assumed, so skip it.

Q) Requested field: Kd. Item: SDFLISEML
A) 17.1

###

- TGT: HLA-A*24:02
- METHOD_NOTES: IEDB peptide-MHC binding, purified MHC/competitive/radioactivity; filed as Kd, often an IC50 or EC50 that approximates it; bounds were set here for any values at or beyond the usual limits of such assays
- CONDITIONS_USED: source organism: Homo sapiens
MEASURE: Kd

Q) Which Kd reading was recorded for the sequence LYSACFWWL ?
A) 0.028 µM

Q) And for RWGLLLALL ?
A) 0.0045 µM

###

- TGT: HLA-A*69:01
- METHOD_NOTES: IEDB peptide-MHC binding, purified MHC/direct/fluorescence; filed as Kd, often an IC50 or EC50 that approximates it; bounds were set here for any values at or beyond the usual limits of such assays
- CONDITIONS_USED: source organism: Yersinia enterocolitica
MEASURE: pKd
pKd field: float, defined as -log10 of concentration (mol/L).

Q) What pKd value was documented for this sequence, YIFRNTINM ?
A) 6.70

###

- TGT: HLA-B*39:01
- METHOD_NOTES: IEDB peptide-MHC binding, purified MHC/competitive/fluorescence; filed as Kd, often an IC50 or EC50 that approximates it; bounds were set here for any values at or beyond the usual limits of such assays
- CONDITIONS_USED: source organism: Vaccinia virus Copenhagen
MEASURE: pKd
Entry type: numeric. Quantity: pKd, the -log10 of concentration in molar units.

Q) I have this sequence here, WENGFKVVL , and I need its recorded pKd.
A) 6.31

###

- TGT: HLA-B*15:42
- METHOD_NOTES: IEDB peptide-MHC binding, purified MHC/competitive/fluorescence; filed as Kd, often an IC50 or EC50 that approximates it; bounds were set here for any values at or beyond the usual limits of such assays
- CONDITIONS_USED: source organism: Mus musculus
MEASURE: Kd

Q) Requested read-out: Kd. Entry: GVPKTHLEL
A) ≥ 5 µM

###

- TGT: HLA-B*39:01
- METHOD_NOTES: IEDB peptide-MHC binding, purified MHC/competitive/fluorescence; filed as Kd, often an IC50 or EC50 that approximates it; bounds were set here for any values at or beyond the usual limits of such assays
- CONDITIONS_USED: source organism: Macaca mulatta
pKd: −log10 of the molar value.
MEASURE: pKd

Q) // fetch HLA-B*39:01 pKd for SAEVVTLWY
A) ≤ 4.70

###

Field: Kd. Provide a value for each of the sequences that follow.
- TGT: HLA-A*02:03
- METHOD_NOTES: IEDB peptide-MHC binding, purified MHC/competitive/radioactivity; filed as Kd, often an IC50 or EC50 that approximates it; bounds were set here for any values at or beyond the usual limits of such assays
- CONDITIONS_USED: source organism: Vaccinia virus WR
Respond numerically; units are µM and should not be typed.

Q) Fill blank: measured Kd of the sequence LAEYIRHRNT is ____.
A) 14

Q) Try VILFIMFMLI next.
A) 0.769

Q) Next entry: TIEDDKIVTM
A) 17.2

###

- TGT: HLA-B*27:03
- METHOD_NOTES: IEDB peptide-MHC binding, purified MHC/competitive/fluorescence; filed as Kd, often an IC50 or EC50 that approximates it; bounds were set here for any values at or beyond the usual limits of such assays
- CONDITIONS_USED: source organism: Mus musculus
MEASURE: Kd

Q) What does the record list as Kd for LVDENQSWY ?
A) ≥ 20 µM

###

- TGT: HLA-A*24:02
- METHOD_NOTES: IEDB peptide-MHC binding, purified MHC/competitive/radioactivity; filed as Kd, often an IC50 or EC50 that approximates it; bounds were set here for any values at or beyond the usual limits of such assays
- CONDITIONS_USED: source organism: SARS coronavirus Tor2
MEASURE: Kd

Q) # query: Kd of entry LYLTQDLFL
A) ≥ 70.3 µM

Q) Further, for YLALYNKYKY ?
A) 18.6 µM

Q) Another sequence to look at: LDESFLGRY
A) ≥ 77.6 µM

Q) Further, for VYKVYYGNAL ?
A) 0.203 µM

Q) Similarly, SYREAACCHL ?
A) 0.221 µM

Q) Then this sequence: APALQEAYY
A) ≥ 77.6 µM

Q) Moving on to the next sequence: LFLAFVVFL
A) ≥ 29.9 µM

Q) # repeat for TSSMRGVYY
A) ≥ 77.6 µM

Q) Try this sequence next: TYASALWEI
A) ≥ 21.5 µM

Q) Next entry: VFSAVGNICY
A) 7.13 µM

Q) Another sequence to look at: YEDQDALFAY
A) ≥ 70.3 µM

Q) Okay, and VSIINNAVY ?
A) ≥ 58.7 µM

Q) Same for VMPVHTLSI
A) 0.0472 µM

###

- TGT: HLA-A*31:01
- METHOD_NOTES: IEDB peptide-MHC binding, purified MHC/competitive/fluorescence; filed as Kd, often an IC50 or EC50 that approximates it; bounds were set here for any values at or beyond the usual limits of such assays
- CONDITIONS_USED: source organism: Influenza A virus (A/swine/Hannover/1/1981(H1N1))
MEASURE: pKd
In textbook form, pKd equals minus log to base ten of the concentration in mol/L.

Q) Find the recorded pKd belonging to MVLASTTAK and report it.
A) 7.34

###

- TGT: HLA-A*69:01
- METHOD_NOTES: IEDB peptide-MHC binding, purified MHC/competitive/fluorescence; filed as Kd, often an IC50 or EC50 that approximates it; bounds were set here for any values at or beyond the usual limits of such assays
- CONDITIONS_USED: source organism: Orthohantavirus sinnombreense
MEASURE: Kd

Q) Sample LFPELECFF — what was its Kd?
A) ≥ 20 µM

###

- TGT: HLA-A*02:19
- METHOD_NOTES: IEDB peptide-MHC binding, purified MHC/competitive/fluorescence; filed as Kd, often an IC50 or EC50 that approximates it; bounds were set here for any values at or beyond the usual limits of such assays
- CONDITIONS_USED: source organism: Giardia lamblia ATCC 50803
MEASURE: Kd (nM)
Respond numerically; units are nM and should not be typed.

Q) # input sequence: ALGGSCHTT ; wanted: its Kd
A) 555

###

- TGT: HLA-B*27:05
- METHOD_NOTES: IEDB peptide-MHC binding, purified MHC/direct/fluorescence; filed as Kd, often an IC50 or EC50 that approximates it; bounds were set here for any values at or beyond the usual limits of such assays
- CONDITIONS_USED: source organism: Orthohantavirus hantanense
pKd: −log10 of the molar value.
MEASURE: pKd

Q) Quick check: pKd of IRKPKHLYV ?
A) ≤ 4.70

###

- TGT: HLA-B*18:01
- METHOD_NOTES: IEDB peptide-MHC binding, purified MHC/direct/fluorescence; filed as Kd, often an IC50 or EC50 that approximates it; bounds were set here for any values at or beyond the usual limits of such assays
- CONDITIONS_USED: source organism: Burkholderia mallei ATCC 23344
pKd: −log10 of the molar value.
MEASURE: pKd

Q) Notebook entry, HLA-B*18:01 assay: pKd of LARFPCNVI = ?
A) ≤ 4.70

###

- TGT: HLA-B*39:01
- METHOD_NOTES: IEDB peptide-MHC binding, purified MHC/competitive/fluorescence; filed as Kd, often an IC50 or EC50 that approximates it; bounds were set here for any values at or beyond the usual limits of such assays
- CONDITIONS_USED: source organism: Escherichia coli E110019
pKd: −log10 of the molar value.
MEASURE: pKd

Q) Bench note: what pKd did RAFWGQVQK show?
A) ≤ 4.70
